Test system: LLC-PK1 cells
Experiment: Assay for determination of apparent permeability (Papp), bi-directional transport
Conditions: comparative compounds described in PCT/US11/059668; LLC-PK1 cells
measuredAttribute: Papp (X10-6 cm/sec)

itemsmiles=CN(C)C1=N[C@@H]2[C@@H](O)[C@H](O)[C@@H]([C@H](OCc3ccccc3F)C(F)(F)F)O[C@@H]2S1 measuredattribute="Papp (X10-6 cm/sec)" result="1.7 X10-6 cm/sec"
itemsmiles=CNC1=N[C@@H]2[C@@H](O)[C@H](O)[C@@H]([C@@H](OCc3ccc(Cc4ccccc4)cc3)C(F)(F)F)O[C@@H]2S1 measuredattribute="Papp (X10-6 cm/sec)" result="<1.0 X10-6 cm/sec"
itemsmiles=CNC1=N[C@@H]2[C@@H](O)[C@H](O)[C@@H]([C@H](C)OC)O[C@@H]2S1 measuredattribute="Papp (X10-6 cm/sec)" result="2.7 X10-6 cm/sec"
itemsmiles=CO[C@@H](C)[C@H]1O[C@@H]2SC(N(C)C)=N[C@@H]2[C@@H](O)[C@@H]1O measuredattribute="Papp (X10-6 cm/sec)" result="1.6 X10-6 cm/sec"
